Target: human CD33 I149A (human, UniProt P20138 18-364)
Sequence (P20138 18-364 I149A limits assumed): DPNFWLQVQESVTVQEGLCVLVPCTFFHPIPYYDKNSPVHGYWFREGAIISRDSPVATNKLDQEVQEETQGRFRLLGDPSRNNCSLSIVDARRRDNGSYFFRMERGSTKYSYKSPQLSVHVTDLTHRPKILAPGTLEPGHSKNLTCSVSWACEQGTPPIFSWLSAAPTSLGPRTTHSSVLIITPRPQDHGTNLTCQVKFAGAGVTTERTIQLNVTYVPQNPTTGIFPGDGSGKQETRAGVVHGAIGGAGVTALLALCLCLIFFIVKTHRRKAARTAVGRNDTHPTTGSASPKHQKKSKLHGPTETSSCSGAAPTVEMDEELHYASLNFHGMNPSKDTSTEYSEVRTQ
Test: flow cytometry on HEK293-T, alanine scan
ENDPOINT_NAME: Mean % WT Binding

Here's what some known entries look like.
BINDER: Refmab #3 (antibody, V domains shown, The alanine scan used IgG or Fab) VH: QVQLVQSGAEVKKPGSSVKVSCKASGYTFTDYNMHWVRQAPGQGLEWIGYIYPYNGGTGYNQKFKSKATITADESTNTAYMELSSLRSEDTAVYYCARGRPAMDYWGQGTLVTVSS VL: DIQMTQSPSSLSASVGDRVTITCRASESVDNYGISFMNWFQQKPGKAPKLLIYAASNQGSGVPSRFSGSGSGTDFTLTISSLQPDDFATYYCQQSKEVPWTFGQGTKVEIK
RESULT: 101 % WT binding
//
BINDER: Refmab #1 (antibody, V domains shown, The alanine scan used IgG or Fab; also called hP67.6) VH: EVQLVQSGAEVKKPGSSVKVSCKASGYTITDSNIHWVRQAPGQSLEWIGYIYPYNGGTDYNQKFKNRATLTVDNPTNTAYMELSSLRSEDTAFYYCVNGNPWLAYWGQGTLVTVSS VL: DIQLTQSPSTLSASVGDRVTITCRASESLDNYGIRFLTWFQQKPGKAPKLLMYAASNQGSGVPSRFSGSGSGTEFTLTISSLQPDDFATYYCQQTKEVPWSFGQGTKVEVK
RESULT: 87.5 % WT binding

Q: Data request, read-out Mean % WT Binding, for Refmab #4 (antibody, V domains shown, The alanine scan used IgG or Fab) VH: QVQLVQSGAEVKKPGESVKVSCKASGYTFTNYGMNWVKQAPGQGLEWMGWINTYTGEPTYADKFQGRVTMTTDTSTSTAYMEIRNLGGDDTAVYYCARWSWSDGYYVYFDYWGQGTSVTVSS VL: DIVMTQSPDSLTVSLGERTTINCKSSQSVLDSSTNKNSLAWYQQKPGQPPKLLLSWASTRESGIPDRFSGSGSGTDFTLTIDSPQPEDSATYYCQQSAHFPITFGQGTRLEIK
Ans: 99.9 % WT binding
